Biological target: Solute carrier organic anion transporter family member 1B3 (Homo sapiens, UniProt Q9NPD5)
Sequence (Q9NPD5 whole entry): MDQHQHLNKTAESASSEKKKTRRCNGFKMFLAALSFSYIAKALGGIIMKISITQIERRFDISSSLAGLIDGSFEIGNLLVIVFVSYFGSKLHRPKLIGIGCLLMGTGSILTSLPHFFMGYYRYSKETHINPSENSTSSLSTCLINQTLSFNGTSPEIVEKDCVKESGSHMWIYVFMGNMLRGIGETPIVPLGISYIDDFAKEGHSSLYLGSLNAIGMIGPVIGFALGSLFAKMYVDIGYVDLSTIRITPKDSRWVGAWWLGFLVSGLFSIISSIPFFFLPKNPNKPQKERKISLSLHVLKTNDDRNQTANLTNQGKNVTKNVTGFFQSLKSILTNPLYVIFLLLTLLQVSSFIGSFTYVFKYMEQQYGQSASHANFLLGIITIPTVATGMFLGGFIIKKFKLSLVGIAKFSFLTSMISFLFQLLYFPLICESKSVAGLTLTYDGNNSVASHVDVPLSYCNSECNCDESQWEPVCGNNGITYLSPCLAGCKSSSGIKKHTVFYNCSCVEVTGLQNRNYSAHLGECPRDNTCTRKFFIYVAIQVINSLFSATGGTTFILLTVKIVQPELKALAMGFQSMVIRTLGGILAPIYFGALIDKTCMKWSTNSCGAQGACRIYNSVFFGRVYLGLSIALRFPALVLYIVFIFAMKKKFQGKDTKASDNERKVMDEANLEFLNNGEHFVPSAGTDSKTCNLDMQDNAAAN
Conditions: chinese hamster, cho, 10 µM
measured quantity: residual activity
Form entry: enter the amount, then its unit.

The following compounds have reported results that may help.
1. COC(=O)C[C@H]1C(C)(C)[C@@H](OC(C)=O)[C@@H]2CC3=C4CC(=O)O[C@@H](c5ccoc5)[C@]4(C)CC[C@@H]3[C@@]1(C)C2=O [FISSINOLIDE] ... 51.76%
2. CC1(C)CC[C@]2(C(=O)O)CC[C@]3(C)C(=CC[C@@H]4[C@@]5(C)CC[C@H](O)C(C)(C)[C@@H]5CC[C@]43C)[C@@H]2C1 ... 73.61%
3. CC1=C(/C=C/C(C)=C/C=C/C(C)=C\C(=O)O)C(C)(C)CCC1 ... 51.47%
4. COc1cc2c(cc1OC)[C@@H]1C(=O)c3ccc(OC)c(CC=C(C)C)c3O[C@@H]1CO2 ... 108.1%
5. N=C(N)NOCC[C@H](N)C(=O)O ... 91.69%
6. C=C(C)[C@H]1Cc2c(ccc3c2O[C@@H]2COc4cc(OC)c(OC)cc4[C@@H]2C3=O)O1 ... 43.86%
7. CCC1(c2ccc(N)cc2)CCC(=O)NC1=O (configuration not stated) [AMINOGLUTETHIMIDE] ... 77%
8. CN(C)/N=N/c1[nH]cnc1C(N)=O ... 90.13%
9. CCCN(CCC)S(=O)(=O)c1ccc(C(=O)O)cc1 ... 89.44%
10. C=C[C@@](C)(O)CC[C@H]1C(=C)C[C@H](O)[C@H]2C(C)(C)CCC[C@]12C ... 78.26%

Lab note: next compound to report on.
**Q:** Output measured residual activity for this item: CO/N=C(\C(=O)N[C@@H]1C(=O)N2C(C(=O)OCOC(=O)C(C)(C)C)=C(/C=C\c3scnc3C)CS[C@H]12)c1csc(N)n1
**A:** 82.75%
